# Tested on: SNB-19 CNS
# ASSAY_NAME: NCI tumour cell line growth inhibition, 48 h

MOLECULE: O=C1/C(=C/c2cccc(O)c2)COc2ccccc21
TGI: 21.8 µM

MOLECULE: S=C(Nc1c2c(nc3ccccc13)CCCC2)Nc1c2c(nc3ccccc13)CCCC2
TGI: > 100 µM

MOLECULE: O=c1nc2sc3ccc4ccccc4c3n2nc1-c1ccccc1
TGI: > 100 µM

MOLECULE: C=C(C)/C=C/C(O)[C@](C)(O)[C@H]1[C@H](O)C[C@@]2(C)[C@@H]3CCc4c(cc(OC5OC(CO)C(O)C(O)C5O)c(O)c4C)C3(C)C(=O)C[C@]12C (stereo not given in full)
TGI: > 100 µM

MOLECULE: CC(=O)Nc1ccc(-c2csc(Nc3ccc(-c4csc(-c5ccccc5)n4)cc3)n2)cc1
TGI: > 50 µM

MOLECULE: COc1ccccc1N=Nc1c(-c2ccccc2)nn(C(=O)CC(=O)Nc2ccccc2Cl)c1-c1ccccc1
TGI: > 100 µM

MOLECULE: CC(NC(=O)C(C)C(=O)Nc1ccc(C(F)(F)F)cc1)C(N)=O (stereo not given)
TGI: > 100 µM

MOLECULE: CC[C@H]1C[C@@H](O)[C@@H]2[C@H](O)[C@H](O)CN2C1
TGI: > 100 µM

MOLECULE: CC(C)(C)c1ccc(O)c(C[N+](C)(C)C)c1
TGI: > 100 µM

MOLECULE: C[N+]1(C)C/C(=C/c2ccc(F)cc2)C(=O)/C(=C\c2ccc(F)cc2)C1
TGI: > 100 µM

* * *

# Tested on: UACC-62 melanoma
# ASSAY_NAME: NCI tumour cell line growth inhibition, 48 h
Listed compounds paired with reported TGI

COMPOUND: CN1C(NN)=NS(=O)(=O)c2ccccc21
TGI: > 100 µM
//
COMPOUND: O=C1c2cccc3cc4ccccc4c(c23)C(=O)N1CCNCCNCCNCCN1C(=O)c2cccc3cc4ccccc4c(c23)C1=O
TGI: 0.156 µM
//
COMPOUND: CC1CC(c2ccc(Cl)cc2)=Nc2ccccc2S1 (stereo not drawn)
TGI: > 100 µM

* * *

Listed compounds paired with reported TGI
# Tested on: OVCAR-3 ovarian
# ASSAY_NAME: NCI tumour cell line growth inhibition, 48 h

COMPOUND: C=C(C)[C@@H]1CC[C@]2(CNCCO)CC[C@]3(C)[C@H](CC[C@@H]4[C@@]5(C)CCC(N)[C@@](C)(CO)[C@@H]5CC[C@]43C)[C@@H]12 (some centres undefined)
SYSTEM_NAME: OVCAR-3 ovarian
VALUE_QUALIFIER: =
TGI / µM: 3.29
--
COMPOUND: CN(C)C=C1C(=O)N(C)C(=O)N(C)C1=O
SYSTEM_NAME: OVCAR-3 ovarian
VALUE_QUALIFIER: >
TGI / µM: 100
--
COMPOUND: COc1cc(/C=N/NC(=O)c2ccc(NC(C)=O)cc2OC)ccc1O
SYSTEM_NAME: OVCAR-3 ovarian
VALUE_QUALIFIER: >
TGI / µM: 100
--
COMPOUND: Cc1ccc(O)c(N=Nc2c(O)cc(S(=O)(=O)O)c3ccccc23)c1
SYSTEM_NAME: OVCAR-3 ovarian
VALUE_QUALIFIER: =
TGI / µM: 76.2
--
COMPOUND: O=C1C=CC(=O)c2c1c1c(c3c2C2c4ccccc4C3c3ccccc32)C2c3ccccc3C1c1ccccc12
SYSTEM_NAME: OVCAR-3 ovarian
VALUE_QUALIFIER: =
TGI / µM: 3.3
--
COMPOUND: Cc1[nH]c2c(C)cccc2c1C1Cc2ccccc2N1 (centres undefined)
SYSTEM_NAME: OVCAR-3 ovarian
VALUE_QUALIFIER: =
TGI / µM: 33
--
COMPOUND: COc1cc2c(cc1OC)C(=O)/C(=C/c1ccccc1)CC2
SYSTEM_NAME: OVCAR-3 ovarian
VALUE_QUALIFIER: >
TGI / µM: 100
--
COMPOUND: CC1(C)CCC(S(=O)(=O)c2ccc3c(c2)/C(=N\O)c2cc(S(=O)(=O)N4CCN(c5ccc(F)cc5O)CC4)ccc2-3)CC1
SYSTEM_NAME: OVCAR-3 ovarian
VALUE_QUALIFIER: =
TGI / µM: 0.285
--
COMPOUND: Ic1ccc2[nH]cc(SSc3c[nH]c4ccc(I)cc34)c2c1
SYSTEM_NAME: OVCAR-3 ovarian
VALUE_QUALIFIER: =
TGI / µM: 5.56
